Where do these numbers come from? They come from patent US20220144940A1.

Biological target: T1, cynomolgus ILT7 (cynomolgus, UniProt P59901 24-499 (human entry))
T1 construct: also called cyno ILT7; cynomolgus monkey ILT7
T1 sequence (P59901 other isoform, or with tags, fused parts or gaps limits assumed): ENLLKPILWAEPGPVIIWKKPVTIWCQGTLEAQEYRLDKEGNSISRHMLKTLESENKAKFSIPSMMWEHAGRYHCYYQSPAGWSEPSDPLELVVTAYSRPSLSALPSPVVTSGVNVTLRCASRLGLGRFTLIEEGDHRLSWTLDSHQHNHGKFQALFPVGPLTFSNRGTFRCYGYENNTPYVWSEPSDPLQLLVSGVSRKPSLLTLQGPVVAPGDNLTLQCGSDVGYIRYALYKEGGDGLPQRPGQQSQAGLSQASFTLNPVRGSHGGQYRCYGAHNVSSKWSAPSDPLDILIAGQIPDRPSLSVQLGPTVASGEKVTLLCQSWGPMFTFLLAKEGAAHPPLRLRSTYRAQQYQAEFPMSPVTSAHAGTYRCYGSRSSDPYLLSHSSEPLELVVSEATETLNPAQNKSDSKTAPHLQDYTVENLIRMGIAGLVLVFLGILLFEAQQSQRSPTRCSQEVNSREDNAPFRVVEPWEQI
Assay: flow cytometry on cynomolgus ILT7-expressing cells, bottom panel, table 'Ec50 (pM)'
The reader will find reported EC50 values listed item by item below.
Result type: EC50 (nM)

INSERT INTO measurements (binder, result_type, output_unit, result_value) VALUES
  ('ILT70083 (antibody, V domains shown) VH: EVQLLESGGGLVQPGGSLRLSCAASGFTFSSYAMSWVRQAPGKGLEWVSAISGSGGSTYYADSVKGWFTISRDNSKNTLYLQMNSLRAEDTAVYYCARRTYYYDSDGHSDVFDIWGRGTLVTVSS VL: QSVVTQPPSVSAAPGQKVTISCSGSASNIGSNFVSWYQQLPGRAPKLLIYDNDKRDLGIPDRFSASISSTSAALAITGLQTEDEADYYCGTWDTSLTVGVFGGGTKLTVL', 'EC50', 'nM', 2.65),
  ('ILT70083.2 (antibody, V domains shown, Engineered (germlined) IgG1 variant of ILT70083) VH: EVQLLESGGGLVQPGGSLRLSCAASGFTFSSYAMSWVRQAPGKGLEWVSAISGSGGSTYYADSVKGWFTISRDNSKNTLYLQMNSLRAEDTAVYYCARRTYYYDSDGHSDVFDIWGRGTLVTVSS VL: QSVLTQPPSVSAAPGQKVTISCSGSASNIGSNFVSWYQQLPGTAPKLLIYDNDKRDLGIPDRFSASISSTSATLGITGLQTGDEADYYCGTWDTSLTVGVFGGGTKLTVL', 'EC50', 'nM', 15),
  ('ILT70083.4 (antibody, V domains shown, Engineered (germlined) IgG1 variant of ILT70083) VH: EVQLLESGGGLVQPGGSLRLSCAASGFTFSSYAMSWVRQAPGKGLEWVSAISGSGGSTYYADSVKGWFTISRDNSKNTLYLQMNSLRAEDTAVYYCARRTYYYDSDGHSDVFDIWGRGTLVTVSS VL: QSVLTQPPSVSAAPGQKVTISCSGSASNIGSNFVSWYQQLPGTAPKLLIYDNDKRDLGIPDRFSGSKSGTSATLGITGLQTGDEADYYCGTWDTSLTVGVFGGGTKLTVL', 'EC50', 'nM', 0.62);
